# condition_context: in 1,4-dioxane, 318.15 K
endpoint: solubility (mole fraction)
Give bare numbers.

Qu. Find the measured solubility (mole fraction) of CN1CCN(c2c(F)cc3c(=O)c(C(=O)O)cn4c3c2OCN4C)CC1 and report it.
Ans. 0.000348

----------
# condition_context: in ethyl acetate, 293.15 K
endpoint: solubility (mole fraction)
Answers are plain numbers.

Qu. Tell me measured solubility (mole fraction) for CN1CCN(c2c(F)cc3c(=O)c(C(=O)O)cn4c3c2OCN4C)CC1 please.
Ans. 0.000197

----------
# condition_context: in ethanol, 313.15 K
endpoint: solubility (mole fraction)
Numbers only.

Qu. Identify measured solubility (mole fraction) corresponding to CN1CCN(c2c(F)cc3c(=O)c(C(=O)O)cn4c3c2OCN4C)CC1
Ans. 0.000217
